- Assay name: Binding affinity to amyloid beta 1 to 40
For each record, write down the corresponding Kd.
The reply should contain only the number, in nM.

stdin: What Kd value was documented for this compound, `[11CH3]Nc1ccc(-c2nc3ccc(O)cc3s2)cc1` ?
stdout: 10

stdin: Please do the same for `CN(C)c1ccc(-c2cn3cc([123I])ccc3n2)cc1` as well.
stdout: 10

====

- Assay name: Displacement of [3H]BTA-1 from amyloid beta 1 to 40 by competitive binding assay
For each record, write down the corresponding Ki.
The reply should contain only the number, in µM.

stdin: What Ki value was documented for this compound, `COc1ccc2c(c1)sc1nc(-c3ccc([123I])cc3)cn12` ?
stdout: 0.0109

stdin: Please do the same for `Cc1ccc2c(c1)sc1nc(-c3ccc(Br)cc3)cn12` as well.
stdout: 0.026

stdin: Please do the same for `Cc1ccc2c(c1)sc1nc(-c3ccc(I)cc3)cn12` as well.
stdout: 0.0177

stdin: Please do the same for `CN(C)c1ccc(-c2cn3c(n2)sc2cc(Br)ccc23)cc1` as well.
stdout: 0.0434

stdin: Please do the same for `Fc1ccc2c(c1)sc1nc(-c3ccc(I)cc3)cn12` as well.
stdout: 0.0419

stdin: Please do the same for `CNc1ccc(-c2cn3c(n2)sc2cc(F)ccc23)cc1` as well.
stdout: 0.0381
